Test system: SNB-19 CNS
Assay: NCI tumour cell line growth inhibition, 48 h
The entries below are paired with their reported GI50.

Example entries and their recorded answers appear below.
C=C1C(=O)O[C@H]2[C@H]1CC/C(COC(=O)NCc1ccc(OC)cc1)=C\CC[C@@]1(C)O[C@@H]21
3.01 µM
C1=C/COCc2cc(ccc2OCCN2CCCC2)Nc2nccc(n2)-c2ccc(o2)COC/1
2.93 µM
CN1CCN(Cc2ccc(NC(=O)c3cncc(C#Cc4cnc(N)cc4C#N)c3)cc2C(F)(F)F)CC1
6.27 µM

Prompt: Quick check: GI50 of `Cc1cc(C)c2c(n1)sc1c(N)ncnc12` ?
Response: > 25 µM

Prompt: Moving on to `Oc1c(Cl)cc(Cl)c2ccc(Cn3cc(-c4cc(C(F)(F)F)cc(C(F)(F)F)c4)nn3)nc12`
Response: 8.28 µM

Prompt: Input NS(=O)(=O)c1ccc(N2N=C3c4ccccc4CC3C2c2cccs2)cc1 (configuration not stated)
Response: 34.4 µM

Prompt: What do you have for CN(Cc1ccc(C(F)(F)F)cc1)CC(O)C(=O)Nc1ccc(Cl)cc1 (configuration not stated) ?
Response: 1.78 µM
